biological target: human H3R (Homo sapiens)
Sequence (Q9Y5N1 whole entry): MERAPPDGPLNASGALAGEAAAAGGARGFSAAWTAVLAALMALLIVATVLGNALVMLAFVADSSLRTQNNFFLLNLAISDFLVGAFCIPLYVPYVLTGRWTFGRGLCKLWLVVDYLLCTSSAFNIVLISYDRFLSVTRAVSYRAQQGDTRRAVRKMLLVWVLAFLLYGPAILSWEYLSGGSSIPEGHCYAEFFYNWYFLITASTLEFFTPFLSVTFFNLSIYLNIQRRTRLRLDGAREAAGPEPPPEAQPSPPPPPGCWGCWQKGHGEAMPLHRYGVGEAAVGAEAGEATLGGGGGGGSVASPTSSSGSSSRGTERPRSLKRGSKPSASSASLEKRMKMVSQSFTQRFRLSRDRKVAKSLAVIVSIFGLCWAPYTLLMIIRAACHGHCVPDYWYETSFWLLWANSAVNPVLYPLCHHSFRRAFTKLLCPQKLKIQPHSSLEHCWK
parameter measured: Ki (nM)
Kindly provide the numeric value in nM only, without the unit symbol.

For CC1CCC(CC(=O)N2CCc3sc(OC4CCN(C(C)C)C4)cc3C2)CC1 (stereo not shown) the molecule record lists Ki as 21.7
